Assay: Selectivity index, ratio of IC50 for human MCF7 cells to IC50 for chloroquine-resistant Plasmodium falciparum Dd2
Format: toxicity, cell-based
Settings: read-out: Ratio IC50
measured_property: selectivity ratio
Enter the number alone.

Q: Field request: selectivity ratio | item: CO[C@H]1C=C2[C@@H](CC[C@H](O)C2(C)C)[C@]2(C)CC[C@]3(C)[C@@H]([C@H](C)CC(C=C(C)C)O[C@@H]4O[C@H](CO)[C@@H](O)[C@H](O)[C@H]4O)CC[C@@]3(C)[C@H]12 (some centres not stated) [KUGUAGLYCOSIDE A]
Result: 2.9

As a next step, examine the compound that follows.
Q: Field request: selectivity ratio | item: CC(C)=C[C@H](O)C[C@@H](C)[C@H]1CC[C@@]2(C)[C@@H]3[C@@H](O[C@@H]4O[C@H](CO)[C@@H](O)[C@H](O)[C@H]4O)C=C4[C@@H](CC[C@H](O)C4(C)C)[C@]3(C)CC[C@]12C [BALSAMINOSIDE C]
Result: 3.3

###

Test: Selectivity index, ratio of IC50 for human MCF7 cells to IC50 for chloroquine-sensitive Plasmodium falciparum 3D7
Assay type: toxicity, cell-based
Settings: read-out: Ratio IC50
measured_property: selectivity ratio
Enter the number alone.

Some compounds with known selectivity ratio results, for comparison:
Q: Field request: selectivity ratio | item: CO[C@H]1C=C2[C@@H](CC[C@H](O)C2(C)C)[C@]2(C)CC[C@]3(C)[C@@H]([C@H](C)CC(C=C(C)C)O[C@@H]4O[C@H](CO)[C@@H](O)[C@H](O)[C@H]4O)CC[C@@]3(C)[C@H]12 (stereo partly specified) [KUGUAGLYCOSIDE A]
Result: 3.5

Q: Field request: selectivity ratio | item: CC(C)=C[C@H](O)C[C@@H](C)[C@H]1CC[C@@]2(C)[C@@H]3[C@@H](O)C=C4[C@@H](CC[C@H](O)C4(C)C)[C@]3(C)CC[C@]12C (relative stereo)
Result: 1.5

Q: Field request: selectivity ratio | item: CC(C)=C[C@H](O)C[C@@H](C)[C@H]1CC[C@@]2(C)[C@@H]3[C@@H](O[C@@H]4O[C@H](CO)[C@@H](O)[C@H](O)[C@H]4O)C=C4[C@@H](CC[C@H](O)C4(C)C)[C@]3(C)CC[C@]12C [BALSAMINOSIDE C]
Result: 7

Next:
Q: Field request: selectivity ratio | item: CC(C)=C[C@H](O)C[C@@H](C)[C@H]1CC[C@@]2(C)[C@@H]3[C@@H](O[C@@H]4O[C@H](CO)[C@@H](O)[C@@H](O)[C@H]4O)C=C4[C@@H](CC[C@H](O)C4(C)C)[C@]3(C)CC[C@]12C (relative stereo) [BALSAMINOSIDE B]
Result: 4.8

###

System: Plasmodium falciparum
Experiment: Antimalarial activity against chloroquine-sensitive Plasmodium falciparum 3D7 infected in erythrocytes after 48 hrs by SYBR green 1-based fluorescence assay
Format: functional, organism-based
Details: 3D7, 48 h
measured_property: pIC50
Reminder that pIC50 is minus the log10 of a molar concentration.

Q: Field request: pIC50 | item: "CC(C)=C[C@@H](C[C@@H](C)[C@H]1CC[C@@]2(C)[C@@H]3[C@@H](OC(=O)c4ccccc4)C=C4[C@@H](CC[C@H](OC(=O)c5ccccc5)C4(C)C)[C@]3(C)CC[C@]12C)OC(=O)c1ccccc1"
Result: 4.24

As a next step, examine the molecule that follows.
Q: Field request: pIC50 | item: CC(C)=C[C@H](O)C[C@@H](C)[C@H]1CC[C@@]2(C)[C@@H]3[C@@H](O[C@@H]4O[C@H](CO)[C@@H](O)[C@@H](O)[C@H]4O)C=C4[C@@H](CC[C@H](O)C4(C)C)[C@]3(C)CC[C@]12C (relative stereo) [BALSAMINOSIDE B]
Result: 5.54
